The entries below are paired with their reported Pre-emergence Herbicidal Activity TRZAX (growth controlling degree).
test system: wheat (Triticum aestivum L.): TRZAX; test: Test Example 1 pre-emergence herbicidal activity, TRZAX; type: in vivo; settings: Rate 63 g a.i./ha, visually observed 20th to 23rd day after application
Source text: […]
endpoint label: Pre-emergence Herbicidal Activity TRZAX (growth controlling degree) (%)

INSERT INTO assay_data (structure_as_smiles, experimental_system, reported_value) VALUES
  ('Cn1nc(-c2c(F)cc(Cl)c(OC(F)F)c2NC=O)c(Cl)c1OC(F)F', 'wheat (Triticum aestivum L.): TRZAX', 60),
  ('COc1c(Cl)cc(F)c(-c2nn(C)c(OC(F)F)c2Cl)c1NC(=O)C(C)(C)Oc1ccccc1', 'wheat (Triticum aestivum L.): TRZAX', 0),
  ('COc1c(Cl)cc(F)c(-c2nn(C)c(OC(F)F)c2Cl)c1NC(=O)c1cccc(C)c1', 'wheat (Triticum aestivum L.): TRZAX', 30),
  ('COc1c(Cl)cc(F)c(-c2nn(C)c(OC(F)F)c2Cl)c1NC(=O)CCOc1ccccc1', 'wheat (Triticum aestivum L.): TRZAX', 0);

---

tested on: wheat (Triticum aestivum L.), TRZAX; test: Test Example 2 post-emergence (foliage treatment) herbicidal activity, TRZAX; assay type: in vivo; conditions: 63 g a.i./ha
The entries below are paired with their reported growth controlling degree, TRZAX.
endpoint label: growth controlling degree, TRZAX (%)

INSERT INTO assay_data (compound, endpoint_label, reported_value) VALUES
  ('COc1c(Cl)cc(F)c(-c2nn(C)c(OC(F)F)c2Cl)c1NC(=O)COc1ccccc1 [Compound 1-15]', 'growth controlling degree, TRZAX', 50),
  ('COc1c(Cl)cc(F)c(-c2nn(C)c(OC(F)F)c2Cl)c1NC(=O)OCc1ccccn1 [Compound 1-69]', 'growth controlling degree, TRZAX', 50),
  ('COc1c(Cl)cc(F)c(-c2nn(C)c(OC(F)F)c2Cl)c1NC(C)C [Compound 1-59]', 'growth controlling degree, TRZAX', 50),
  ('CCOC(=O)C(C)N(C=O)c1c(OC)c(Cl)cc(F)c1-c1nn(C)c(OC(F)F)c1Cl (centres unmarked) [Compound 1-42]', 'growth controlling degree, TRZAX', 20),
  ('COc1c(Cl)cc(F)c(-c2nn(C)c(OC(F)F)c2Cl)c1NCCOc1ccccc1 [Compound 1-77]', 'growth controlling degree, TRZAX', 30),
  ('CCOC(=O)Nc1c(OC)c(Cl)cc(F)c1-c1nn(C)c(OC(F)F)c1Cl [Compound 1-273]', 'growth controlling degree, TRZAX', 20),
  ('COc1c(Cl)cc(F)c(-c2nn(C)c(OC(F)F)c2Cl)c1N(C(=O)CCc1ccccc1)C(=O)CCc1ccccc1 [Compound 1-18]', 'growth controlling degree, TRZAX', 10),
  ('C#CCNc1c(OC)c(Cl)cc(F)c1-c1nn(C)c(OC(F)F)c1Cl [Compound 1-53]', 'growth controlling degree, TRZAX', 40),
  ('COc1c(Cl)cc(F)c(-c2nn(C)c(OC(F)F)c2Cl)c1NC(=O)C=Cc1c(Cl)cccc1Cl [Compound 1-252]', 'growth controlling degree, TRZAX', 50),
  ('COc1c(Cl)cc(F)c(-c2nn(C)c(OC(F)F)c2Cl)c1N(C(=O)OCCl)C(=O)OCCl [Compound 1-55]', 'growth controlling degree, TRZAX', 10),
  ('C#CCN(C=O)c1c(OC(F)F)c(Cl)cc(F)c1-c1nn(C)c(OC(F)F)c1Cl [Compound 1-85]', 'growth controlling degree, TRZAX', 40),
  ('COc1c(Cl)cc(F)c(-c2nn(C)c(OC(F)F)c2Cl)c1NC(=O)C=Cc1cccc(F)c1 [Compound 1-257]', 'growth controlling degree, TRZAX', 50),
  ('COc1c(Cl)cc(F)c(-c2nn(C)c(OC(F)F)c2Cl)c1NC(=O)c1cccc(C(F)(F)F)c1 [Compound 1-262]', 'growth controlling degree, TRZAX', 30),
  ('COc1c(Cl)cc(F)c(-c2nn(C)c(OC(F)F)c2Cl)c1NC(=O)c1ccc(F)cc1 [Compound 1-263]', 'growth controlling degree, TRZAX', 30),
  ('COc1c(Cl)cc(F)c(-c2nn(C)c(OC(F)F)c2Cl)c1NC(=O)OC(C)C [Compound 1-75]', 'growth controlling degree, TRZAX', 50),
  ('Cn1nc(-c2c(F)cc(Cl)c(OC(F)F)c2NC(=O)C(F)(F)F)c(Cl)c1OC(F)F [Compound 1-83]', 'growth controlling degree, TRZAX', 10),
  ('COc1c(Cl)cc(F)c(-c2nn(C)c(OC(F)F)c2Cl)c1NC(=O)c1ccccc1C(F)(F)F [Compound 1-25]', 'growth controlling degree, TRZAX', 40),
  ('COc1c(Cl)cc(F)c(-c2nn(C)c(OC(F)F)c2Cl)c1NC(=O)OCc1ccccc1 [Compound 1-71]', 'growth controlling degree, TRZAX', 60),
  ('COc1c(Cl)cc(F)c(-c2nn(C)c(OC(F)F)c2Cl)c1NC(=O)CCC1CCCCC1 [Compound 1-259]', 'growth controlling degree, TRZAX', 0),
  ('COc1c(Cl)cc(F)c(-c2nn(C)c(OC(F)F)c2Cl)c1NC=O [Compound 1-4]', 'growth controlling degree, TRZAX', 50),
  ('COCCOC(=O)Nc1c(OC)c(Cl)cc(F)c1-c1nn(C)c(OC(F)F)c1Cl [Compound 1-61]', 'growth controlling degree, TRZAX', 60),
  ('COc1c(Cl)cc(F)c(-c2nn(C)c(OC(F)F)c2Cl)c1NC(=O)C(C)Oc1ccccc1 (centres unmarked) [Compound 1-33]', 'growth controlling degree, TRZAX', 30),
  ('COc1c(Cl)cc(F)c(-c2nn(C)c(OC(F)F)c2Cl)c1NC(=O)c1ccccc1Cl [Compound 1-23]', 'growth controlling degree, TRZAX', 40),
  ('COc1c(Cl)cc(F)c(-c2nn(C)c(OC(F)F)c2Cl)c1NC(=O)c1ccccc1C [Compound 1-24]', 'growth controlling degree, TRZAX', 50),
  ('COc1c(Cl)cc(F)c(-c2nn(C)c(OC(F)F)c2Cl)c1NC(=O)c1ccccc1F [Compound 1-22]', 'growth controlling degree, TRZAX', 40),
  ('CCCOC(=O)Nc1c(OC)c(Cl)cc(F)c1-c1nn(C)c(OC(F)F)c1Cl [Compound 1-72]', 'growth controlling degree, TRZAX', 20),
  ('Cn1nc(-c2c(F)cc(Cl)c(OC(F)F)c2N(C=O)Cc2ccccc2)c(Cl)c1OC(F)F [Compound 1-86]', 'growth controlling degree, TRZAX', 0),
  ('COc1c(Cl)cc(F)c(-c2nn(C)c(OC(F)F)c2Cl)c1NC(=O)COc1ccc(Cl)cc1 [Compound 1-35]', 'growth controlling degree, TRZAX', 40),
  ('COc1c(Cl)cc(F)c(-c2nn(C)c(OC(F)F)c2Cl)c1NC(=O)C(C)c1ccccc1 (centres unmarked) [Compound 1-41]', 'growth controlling degree, TRZAX', 30),
  ('COc1c(Cl)cc(F)c(-c2nn(C)c(OC(F)F)c2Cl)c1NC(=O)C1CC1 [Compound 1-264]', 'growth controlling degree, TRZAX', 40),
  ('COc1cccc(C(=O)Nc2c(OC)c(Cl)cc(F)c2-c2nn(C)c(OC(F)F)c2Cl)c1 [Compound 1-28]', 'growth controlling degree, TRZAX', 40),
  ('COCC(=O)Nc1c(OC)c(Cl)cc(F)c1-c1nn(C)c(OC(F)F)c1Cl [Compound 1-16]', 'growth controlling degree, TRZAX', 50);
